Data provenance: paper PMC7343282

- Test system: rainbow trout (Oncorhynchus mykiss)
- Assay Details: Contribution of tissues to fish body burden
- Format: in vivo
- Condition Parameters: fraction, Fish #6
Just a reminder that ties go to not met: only Contribution of Blood to the fish's body burden strictly below 0.02 counts as met.

CCCCCCCCCCCCCN [P13, tridecylamine] ... met

[Q] Please state whether Contribution of Blood to the fish's body burden is below 0.02 for CCCCCCCCCN [P9, Nonylamine]
[A] met

[Q] Please state whether Contribution of Blood to the fish's body burden is below 0.02 for CCCCCCCCCCCCCN(C)C [T13, N,N-dimethyltridecylamine]
[A] not met

[Q] Please state whether Contribution of Blood to the fish's body burden is below 0.02 for CCCCCCCCCN(C)C [T9, N,N-dimethylnonylamine]
[A] not met

[Q] Please state whether Contribution of Blood to the fish's body burden is below 0.02 for CCCCCCCCCCCCCCCCN [P16, hexadecylamine]
[A] met

[Q] Please state whether Contribution of Blood to the fish's body burden is below 0.02 for CCCCCCCCCCCCN [P12, Dodecylamine]
[A] met
